Molecular target: human PDE10A (Homo sapiens)
Construct: encoding full-length human PDE10A (AAD32595.1); Flag-His (C); made in house; host or cells: Sf9 (baculovirus, pFastBac1)
Sequence (Q9Y233 1-779 isoform Q9Y233-1): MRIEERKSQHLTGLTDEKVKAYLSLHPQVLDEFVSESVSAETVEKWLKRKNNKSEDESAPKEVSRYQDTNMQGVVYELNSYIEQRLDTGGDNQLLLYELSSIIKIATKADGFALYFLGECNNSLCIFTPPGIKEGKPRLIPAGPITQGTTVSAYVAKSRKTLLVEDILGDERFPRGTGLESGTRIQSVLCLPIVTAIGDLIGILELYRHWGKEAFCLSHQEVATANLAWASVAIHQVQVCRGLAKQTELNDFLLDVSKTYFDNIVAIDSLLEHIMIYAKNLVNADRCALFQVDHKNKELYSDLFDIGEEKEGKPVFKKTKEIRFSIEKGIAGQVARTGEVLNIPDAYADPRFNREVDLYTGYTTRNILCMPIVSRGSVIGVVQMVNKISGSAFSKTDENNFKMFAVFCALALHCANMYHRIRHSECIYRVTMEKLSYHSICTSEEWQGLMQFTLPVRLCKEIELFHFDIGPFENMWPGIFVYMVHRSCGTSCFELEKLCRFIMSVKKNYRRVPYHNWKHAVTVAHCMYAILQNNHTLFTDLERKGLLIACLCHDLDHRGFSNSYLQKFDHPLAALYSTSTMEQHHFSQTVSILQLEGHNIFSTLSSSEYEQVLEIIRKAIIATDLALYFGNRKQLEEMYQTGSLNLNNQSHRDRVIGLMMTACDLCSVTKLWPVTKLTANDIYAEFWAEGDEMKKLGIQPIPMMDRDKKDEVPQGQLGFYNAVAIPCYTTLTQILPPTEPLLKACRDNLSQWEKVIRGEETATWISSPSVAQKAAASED
Assay: PDE enzyme assay using [3H]cGMP as substrate (SPA), PDE10A
Type: biochemical
Settings: human PDE10A 0.03 nM, [3H]cGMP 80 nM
value.kind: IC50 (nM)
Provide only the numeric value, understood in nM.

Asked: # get_value(readout='IC50', item= CCCCn1c(=O)c2nnc(C3(C)CC3)n2c2ncccc21 )
Given back: 9340

---

Target: human PDE2A (Homo sapiens)
Construct: full-length human PDE1B (NP_000915.1) and PDE2A (NP_002590.1); HIS (C); made in house; host or cells: Sf9 (pIEX4)
Sequence (O00408 whole entry): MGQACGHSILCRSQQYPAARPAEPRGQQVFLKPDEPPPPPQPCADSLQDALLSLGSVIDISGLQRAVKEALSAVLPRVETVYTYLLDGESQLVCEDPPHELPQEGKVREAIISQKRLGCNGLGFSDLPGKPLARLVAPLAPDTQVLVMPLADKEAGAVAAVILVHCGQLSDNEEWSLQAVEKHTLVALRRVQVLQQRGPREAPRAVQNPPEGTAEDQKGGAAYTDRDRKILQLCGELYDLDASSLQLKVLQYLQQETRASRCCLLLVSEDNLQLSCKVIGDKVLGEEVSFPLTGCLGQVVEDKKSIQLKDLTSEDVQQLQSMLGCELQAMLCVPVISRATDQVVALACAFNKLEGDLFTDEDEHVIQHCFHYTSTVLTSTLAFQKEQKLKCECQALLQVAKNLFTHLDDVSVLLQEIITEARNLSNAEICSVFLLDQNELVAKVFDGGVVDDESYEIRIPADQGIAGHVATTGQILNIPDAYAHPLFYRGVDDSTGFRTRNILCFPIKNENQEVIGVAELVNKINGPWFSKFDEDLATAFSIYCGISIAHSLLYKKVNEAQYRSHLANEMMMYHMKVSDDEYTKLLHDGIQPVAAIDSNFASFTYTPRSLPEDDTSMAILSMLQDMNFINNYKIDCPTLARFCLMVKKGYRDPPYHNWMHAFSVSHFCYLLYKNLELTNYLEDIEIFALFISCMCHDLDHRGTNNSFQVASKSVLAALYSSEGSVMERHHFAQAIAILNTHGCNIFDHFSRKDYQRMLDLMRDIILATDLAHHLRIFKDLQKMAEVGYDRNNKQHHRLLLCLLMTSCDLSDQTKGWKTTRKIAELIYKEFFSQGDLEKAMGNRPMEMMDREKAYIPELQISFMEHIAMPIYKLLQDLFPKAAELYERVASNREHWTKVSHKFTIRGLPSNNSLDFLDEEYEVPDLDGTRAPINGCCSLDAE
Assay: PDE enzyme assay using [3H]cGMP as substrate (SPA), PDE2A
Assay type: biochemical
Details: human PDE2A 0.2 nM, [3H]cGMP 80 nM
Description: The nucleotide sequences encoding full-length human PDE1A (NP_001003683.1), PDE1C (NP_005011.1), PDE5A (NP_001074.2), PDE7B (NP_061818.1) and PDE9A (NP_002597.1) are inserted into pFastBac1 (Invitrogen) vector with an N-terminal HIS tag. […] All 3′, 5′ cyclic nucleotide phosphodiesterase (PDE) enzyme activities are measured with a radiometric enzyme assay based on SPA detection system (scintillation proximity assay). […] Samples are read 12 hours later in a MICROBETA™ TRILUX® Counter. […]
value.kind: IC50

Asked: # get_value(readout='IC50', item= CCCCn1c(=O)c2nnc(C3(C)CC3)n2c2ncccc21 )
Given back: > 10000 nM
